Tested on: PDE-IV
Experiment: PDE-IV Assay Procedure (SPA, 3H-cAMP, U937 lysate)
Assay type: biochemical
Conditions: U937 cell lysate as PDE-IV source; 200 nM cAMP, 8 nM 3H-cAMP; pH 8.0; 2% DMSO; 1 hour at 37° C.; initially tested at 10, 3, 1, 0.3, 0.1 μM
Protocol: Representative compounds to be tested were diluted in 96-well plates. The compounds were either received as a 10 mM stock solution in DMSO, or as a solid which was resuspended to a concentration of 10 mM in DMSO. The compounds were initially tested at 10, 3, 1, 0.3, and 0.1 μM to calculate an IC50. In some cases, plates containing diluted compounds were frozen before being assayed. In these cases, the plates were thawed for 15 minutes at 37° C. and agitated before proceeding. […]
assay-metric: IC50 (µM)
Value expressed in µM; do not type the unit.

Record excerpt, results attached:
**Query** IC50 lookup needed for `CCCN(CCC)S(=O)(=O)c1ccc(OC)c(OC)c1` , thanks.
**Result** 0.46

**Query** IC50 lookup needed for `CCOc1ccc(S(=O)(=O)N(C)C)cc1OCC` , thanks.
**Result** 0.28

**Query** IC50 lookup needed for `CC=CCN(C)S(=O)(=O)c1ccc(OC)c(OC)c1` , thanks.
**Result** 1.56

**Query** IC50 lookup needed for `C=CCN(C)S(=O)(=O)c1ccc(OC)c(OC)c1` , thanks.
**Result** 0.66

**Query** IC50 lookup needed for `COc1ccc(S(=O)(=O)N(C)CC#N)cc1OC` , thanks.
**Result** 1.76

Further cases:
**Query** IC50 lookup needed for `CCN(C)S(=O)(=O)c1ccc(OC)c(OC)c1` , thanks.
**Result** 0.7

**Query** IC50 lookup needed for `C=CCN(C)S(=O)(=O)c1ccc(OCC)c(OCC)c1` , thanks.
**Result** 0.02

---

Test system: PDE-IV
Experiment: PDE-IV Assay Procedure (SPA, 3H-cAMP, U937 lysate)
Assay type: biochemical
Conditions: U937 cell lysate as PDE-IV source; 200 nM cAMP, 8 nM 3H-cAMP; pH 8.0; 2% DMSO; 1 hour at 37° C.; initially tested at 10, 3, 1, 0.3, 0.1 μM
Friendly reminder: IC50 below 2 µM is fulfilled, at or above is not fulfilled.

Examples from the recorded data:
**Query** In plain terms, does `COc1ccc(S(=O)(=O)N2CCCCC2)cc1OC` come in under 2 µM for IC50?
**Result** not fulfilled

**Query** In plain terms, does `CCCN(C)S(=O)(=O)c1ccc(OC)c(OC)c1` come in under 2 µM for IC50?
**Result** fulfilled

**Query** In plain terms, does `COc1ccc(S(=O)(=O)NC2CCCCC2)cc1OC` come in under 2 µM for IC50?
**Result** not fulfilled

**Query** In plain terms, does `COc1ccc(S(=O)(=O)N2CCCC2)cc1OC` come in under 2 µM for IC50?
**Result** not fulfilled

**Query** In plain terms, does `C#CCN(C)S(=O)(=O)c1ccc(OCC)c(OCC)c1` come in under 2 µM for IC50?
**Result** fulfilled

We next turn to a different molecule, shown below.
**Query** In plain terms, does `C=CCN(CC=C)S(=O)(=O)c1ccc(OC)c(OC)c1` come in under 2 µM for IC50?
**Result** fulfilled
